Test system: woolly cupgrass (Eriochloa villosa)
Assay Overview: Test C pre-/postemergence: woolly cupgrass
Type: in vivo
Measurement Parameters: Postemergence, 62 g ai/ha; scale 0 to 100 (0 no effect, 100 complete control)
Reported Plant response rating, Cupgrass, Woolly values follow for various molecules
No unit in the answer, only the number.

Worked examples follow.
{"Smiles Structure": "FC(F)(F)COc1nn(-c2ccc(C(F)(F)F)cc2)nc1Cc1ccnc(C(F)(F)F)c1", "Tested System": "woolly cupgrass (Eriochloa villosa)", "Plant response rating, Cupgrass, Woolly": 5}
{"Smiles Structure": "CCOc1nn(-c2ccc(F)cc2)nc1Cc1ccnc(C(F)(F)F)c1", "Tested System": "woolly cupgrass (Eriochloa villosa)", "Plant response rating, Cupgrass, Woolly": 80}
{"Smiles Structure": "Cc1nn(-c2ccc(C(F)(F)F)c(F)c2)nc1Oc1ccnc(C(F)(F)F)c1", "Tested System": "woolly cupgrass (Eriochloa villosa)", "Plant response rating, Cupgrass, Woolly": 55}

Value of measured Plant response rating, Cupgrass, Woolly for the entry COc1nn(-c2cccc(F)c2)nc1Cc1ccnc(C(F)(F)F)c1 : 30

====

System: crabgrass, large (large crabgrass, Digitaria sanguinalis)
Assay Overview: Test A pre-/postemergence: crabgrass, large
Type: in vivo
Measurement Parameters: Preemergence, 125 g ai/ha; 0 to 100 scale (0 no effect, 100 complete control)
Reported Plant response rating, Crabgrass, Large values follow for various molecules
No unit in the answer, only the number.

Worked examples follow.
{"Molecule": "Cc1nn(-c2ccc(C(F)(F)F)cc2)nc1Oc1ccnc(OCC(F)(F)F)c1 [Compound 77]", "Tested System": "crabgrass, large (large crabgrass, Digitaria sanguinalis)", "Plant response rating, Crabgrass, Large": 0}
{"Molecule": "Cc1nn(-c2ccc(C(F)F)cn2)nc1C(=O)c1cccc(C(F)(F)F)c1 [Compound 68]", "Tested System": "crabgrass, large (large crabgrass, Digitaria sanguinalis)", "Plant response rating, Crabgrass, Large": 0}
{"Molecule": "Cc1nn(-c2ccc(C(F)(F)F)cc2)nc1Cn1cc(C(F)(F)F)nc1Cl [Compound 9]", "Tested System": "crabgrass, large (large crabgrass, Digitaria sanguinalis)", "Plant response rating, Crabgrass, Large": 90}

Value of measured Plant response rating, Crabgrass, Large for the entry Cc1nn(-c2ccc(Cl)nc2)nc1C(=O)c1cccc(C(F)(F)F)c1 [Compound 72] : 0

Value of measured Plant response rating, Crabgrass, Large for the entry CCc1nn(-c2ccc(F)cc2)nc1Cn1ccc(C(F)(F)C(F)(F)F)n1 [Compound 10] : 40

====

System: deadnettle (henbit deadnettle, Lamium amplexicaule)
Assay Overview: Test D pre-/postemergence: deadnettle
Assay type: in vivo
Measurement Parameters: Preemergence; 62 g ai/ha; scale 0 to 100
Reported Metric: Plant response rating, Deadnettle

Worked examples follow.
{"Compound": "CCOc1nn(-c2ccc(F)cc2)nc1Cc1ccnc(C(F)(F)F)c1 [Compound 196]", "Tested System": "deadnettle (henbit deadnettle, Lamium amplexicaule)", "Plant response rating, Deadnettle": 100}
{"Compound": "CCc1nn(-c2ccc(C(F)(F)F)cc2)nc1Cc1ccnc(C(F)(F)F)c1 [Compound 155]", "Tested System": "deadnettle (henbit deadnettle, Lamium amplexicaule)", "Plant response rating, Deadnettle": 80}
{"Compound": "COc1nn(-c2ccc(C(F)(F)F)cc2)nc1Cc1ccnc(C(F)(F)F)c1 [Compound 15]", "Tested System": "deadnettle (henbit deadnettle, Lamium amplexicaule)", "Plant response rating, Deadnettle": 40}

Now for a further compound.
Summary line: Cc1nn(-c2ccc(F)c(C(F)(F)F)c2)nc1Cc1ccnc(C(F)(F)F)c1 [Compound 156] , deadnettle (henbit deadnettle, Lamium amplexicaule), reported Plant response rating, Deadnettle = 100
